Assay: Therapeutic index was determined as mouse hypothermia ED50/murine ex vivo ED50
Settings: read-out: Therapeutic index
propertyLabel: selectivity ratio
Give the figure by itself; no unit, no explanation.

Query block: Given C=CC[C@@H]1/C=C(\C)C[C@H](C)C[C@H](OC)[C@H]2O[C@@](O)(C(=O)C(=O)N3CCCC[C@H]3C(=O)O[C@H](/C(C)=C/[C@@H]3CC[C@@H](O)[C@H](OC)C3)[C@H](C)[C@@H](O)CC1=O)[C@H](C)C[C@@H]2OC [TACROLIMUS ANHYDROUS] , state its recorded selectivity ratio.
Result block: 15

###

Target: Peptidyl-prolyl cis-trans isomerase FKBP1A (Homo sapiens, UniProt P62942)
Sequence (P62942 whole entry): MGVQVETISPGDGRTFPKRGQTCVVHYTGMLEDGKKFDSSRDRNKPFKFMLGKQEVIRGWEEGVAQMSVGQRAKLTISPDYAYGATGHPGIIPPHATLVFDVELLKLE
Experiment: Binding affinity for FK506 binding protein 12 using [3H]-dihydro FK-506 radioligand was determined
propertyLabel: pEC50
Note on pEC50: it is the negative log10 of concentration, concentration in mol/L.

Solved cases below.
smilesstring=CC[C@@H]1/C=C(\C)C[C@H](C)C[C@H](OC)[C@H]2O[C@@](O)(C(=O)C(=O)N3CCCC[C@H]3C(=O)O[C@H](/C(C)=C/[C@@H]3CC[C@@H](OCc4nccn4Cc4ccccc4)[C@H](OC)C3)[C@H](C)[C@@H](O)CC1=O)[C@H](C)C[C@@H]2OC propertylabel=pEC50 observedresult=8.13
smilesstring=CC[C@@H]1/C=C(\C)C[C@H](C)C[C@H](OC)[C@H]2O[C@@](O)(C(=O)C(=O)N3CCCC[C@H]3C(=O)O[C@H](/C(C)=C/[C@@H]3CC[C@@H](OC/C=C/c4ccccc4)[C@H](OC)C3)[C@H](C)[C@@H](O)CC1=O)[C@H](C)C[C@@H]2OC propertylabel=pEC50 observedresult=7.52

Query block: Record request: pEC50 value, item CC[C@@H]1/C=C(\C)C[C@H](C)C[C@H](OC)[C@H]2O[C@@](O)(C(=O)C(=O)N3CCCC[C@H]3C(=O)O[C@H](/C(C)=C/[C@@H]3CC[C@@H](OCc4nc(-c5ccccc5)c[nH]4)[C@H](OC)C3)[C@H](C)[C@@H](O)CC1=O)[C@H](C)C[C@@H]2OC
Result block: 7.66

Query block: I have this compound here, CC[C@@H]1/C=C(\C)C[C@H](C)C[C@H](OC)[C@H]2O[C@@](O)(C(=O)C(=O)N3CCCC[C@H]3C(=O)O[C@H](/C(C)=C/[C@@H]3CC[C@@H](OCOCc4ccccc4)[C@H](OC)C3)[C@H](C)[C@@H](O)CC1=O)[C@H](C)C[C@@H]2OC , and I need its recorded pEC50.
Result block: 7.92

Origin of the recorded values: ChEMBL document CHEMBL1131393
